Listing of entries alongside the reported CTG-3D luminescence at 96 h.
# Test system: HCI-016 (organoid from a triple-negative breast cancer xenograft)
# assay.info: CTG-3D luminescence at 96 h relative to day-0 seeding control (ratio to day 0); higher = more growth / less cytotoxicity; PDxO 3D drug screen, 96 h, CTG-3D normalised to day-0 seeding control.
# test.context: 0.005 µM; days in culture: 190
Just the number.

C=CCn1c(=O)c2cnc(Nc3ccc(N4CCN(C)CC4)cc3)nc2n1-c1cccc(C(C)(C)O)n1    1.36
NC(=O)c1cccc2cn(-c3ccc([C@@H]4CCCNC4)cc3)nc12    2.08
O=C(O)C1(C(=O)O)CCC1.[NH2-].[NH2-].[Pt+2]    1.53
Nc1ccn([C@@H]2O[C@H](CO)[C@@H](O)C2(F)F)c(=O)n1    1.52
C[C@]12CC[C@@H]3c4ccc(O)cc4C[C@@H](CCCCCCCCC[S+]([O-])CCCC(F)(F)C(F)(F)F)[C@H]3[C@@H]1CC[C@@H]2O (some centres not stated)    1.85
CC(=O)O[C@H]1C(=O)[C@@]2(C)[C@H]([C@H](OC(=O)c3ccccc3)[C@]3(O)C[C@H](OC(=O)[C@H](O)[C@@H](NC(=O)c4ccccc4)c4ccccc4)C(C)=C1C3(C)C)[C@]1(OC(C)=O)CO[C@@H]1C[C@@H]2O    0.919

Let's switch to this compound now.
[in] Please provide the recorded CTG-3D luminescence at 96 h for C=CC(=O)N1CCC[C@@H](n2nc(-c3ccc(Oc4ccccc4)cc3)c3c(N)ncnc32)C1 , tested on HCI-016.
[out] 1.45

src = the supplement of paper PMC8882468
